All figures here come from patent US9796711B2.

target: ΔF508-CFTR (Homo sapiens, UniProt P13569, DEL508-508); construct: host or cells: CFBE41o-, doxycycline-inducible; experiment: CFTR cell surface levels using HRP-tagged ΔF508-CFTR expressing CFBE cells, in the presence of a co-corrector; format: cell-based; settings: HRP-tagged ΔF508-CFTR expressing CFBE cells, in the presence of 3 μM co-corrector; read-out: EC50
Sequence (P13569 with tags, fused parts or gaps DEL508-508): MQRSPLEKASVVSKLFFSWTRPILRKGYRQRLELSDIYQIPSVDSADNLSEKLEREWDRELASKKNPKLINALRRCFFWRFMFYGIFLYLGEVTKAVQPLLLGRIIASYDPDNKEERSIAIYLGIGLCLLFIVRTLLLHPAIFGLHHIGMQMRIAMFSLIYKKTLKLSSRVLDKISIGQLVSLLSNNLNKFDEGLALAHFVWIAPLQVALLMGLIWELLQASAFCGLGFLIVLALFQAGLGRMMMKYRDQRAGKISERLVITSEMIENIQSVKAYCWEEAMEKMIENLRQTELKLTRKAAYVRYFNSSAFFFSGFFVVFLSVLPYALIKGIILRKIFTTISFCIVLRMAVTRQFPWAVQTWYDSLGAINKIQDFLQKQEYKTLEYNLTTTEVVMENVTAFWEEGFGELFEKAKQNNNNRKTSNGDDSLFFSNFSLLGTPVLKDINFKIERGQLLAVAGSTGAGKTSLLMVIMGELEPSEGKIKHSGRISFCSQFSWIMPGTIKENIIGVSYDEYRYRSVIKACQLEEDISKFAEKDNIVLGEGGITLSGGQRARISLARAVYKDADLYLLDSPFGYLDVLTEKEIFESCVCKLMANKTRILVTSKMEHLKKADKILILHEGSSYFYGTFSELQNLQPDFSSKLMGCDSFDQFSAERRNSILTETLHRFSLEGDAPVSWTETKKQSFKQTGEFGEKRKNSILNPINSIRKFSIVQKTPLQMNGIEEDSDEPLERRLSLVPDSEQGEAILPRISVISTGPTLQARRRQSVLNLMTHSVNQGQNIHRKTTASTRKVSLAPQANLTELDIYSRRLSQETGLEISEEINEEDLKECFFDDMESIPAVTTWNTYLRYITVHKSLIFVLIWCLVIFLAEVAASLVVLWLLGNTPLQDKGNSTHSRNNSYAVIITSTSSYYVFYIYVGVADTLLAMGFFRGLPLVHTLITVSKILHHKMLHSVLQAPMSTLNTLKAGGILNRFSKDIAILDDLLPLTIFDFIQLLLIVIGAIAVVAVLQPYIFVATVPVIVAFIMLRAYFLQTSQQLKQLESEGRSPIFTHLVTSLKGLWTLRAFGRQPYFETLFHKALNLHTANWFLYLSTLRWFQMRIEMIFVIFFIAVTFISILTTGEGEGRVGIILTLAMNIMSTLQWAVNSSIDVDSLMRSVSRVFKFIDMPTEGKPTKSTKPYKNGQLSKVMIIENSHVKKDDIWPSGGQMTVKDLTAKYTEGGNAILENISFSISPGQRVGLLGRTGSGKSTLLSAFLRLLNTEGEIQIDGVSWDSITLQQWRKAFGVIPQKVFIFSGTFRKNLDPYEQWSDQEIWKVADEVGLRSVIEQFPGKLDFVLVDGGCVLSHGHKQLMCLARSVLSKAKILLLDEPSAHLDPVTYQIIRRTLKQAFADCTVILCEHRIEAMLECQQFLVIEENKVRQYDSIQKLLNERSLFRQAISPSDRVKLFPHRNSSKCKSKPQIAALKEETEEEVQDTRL
pEC50: −log10 of the molar value.
Output true for pEC50 not less than 6; output false otherwise.

1. CC(C)(CO)c1nn(-c2ccccc2)c2nc(C(=O)O)cc(-c3ccc(N4CCOCC4)nc3)c12 [compound 92]    false
2. Cc1nn(-c2ccn(C)c(=O)c2)c2nc(C(=O)O)cc(-c3ccc(N4CCOCC4)cc3)c12 [compound 94]    false
3. O=C(O)c1cc(N2CCC3C(CCN3C3CCC3)C2)c2c(C3CCC3)nn(-c3ccc(F)cc3)c2n1 (stereo not drawn) [compound 901]    true
4. Cc1cccc(-n2nc(C(C)C)c3c(N4CCC(F)(F)CC4)cc(C(=O)O)nc32)c1 [compound 210]    false
5. O=C(O)c1cc(N2CCC([C@@H](F)CO)CC2)c2c(C3CCC3)nn(-c3ccccc3)c2n1 [compound 458]    true
6. O=C(O)c1cc(N2CCC(N3CCOCC3)CC2)c2c(C3CCC3)nn(-c3ccnc(OC(F)F)c3)c2n1 [compound 889]    true
7. CC(C)Oc1nn(C2CCCCC2)c2nc(C(=O)O)cc(-c3ccc(N4CCN(C(C)C)CC4)cc3)c12 [compound 863]    true
8. O=C(O)c1cc(O[C@H]2C[C@@H](N3CCC3)C2)c2c(C3CCC3)nn(-c3ccccc3)c2n1 [compound 598]    false

----------
compounds and their reported pEC50
biological target: ΔF508-CFTR (Homo sapiens, UniProt P13569, DEL508-508); construct: host or cells: CFBE41o-, doxycycline-inducible; assay: CFTR cell surface levels using HRP-tagged ΔF508-CFTR expressing CFBE cells, intrinsic corrector capacity; type: cell-based; conditions: HRP-tagged ΔF508-CFTR CFBE41o- cells, compounds alone (intrinsic corrector capacity), 20 hours at 33° C.; read-out: EC50
pEC50: −log10 of the molar value.
measurement_label: pEC50

1) Cc1nn(-c2ccccc2)c2nc(C(=O)O)cc(-c3ccc(N4CCN(CCC(F)(F)F)CC4)cc3)c12    6.00
2) Cc1nn(C2CCCCC2)c2nc(C(=O)O)cc(-c3ccc(N(C)C)nc3)c12    5.82
3) CO[C@H]1CCC[C@@H](n2nc(C(C)C)c3c(-c4ccc(N5CCOCC5)cc4)cc(C(=O)O)nc32)C1    5.95
4) COCCN(C)c1ccc(-c2cc(C(=O)O)nc3c2c(C(C)C)nn3-c2cccc(N3CCCC3)c2)cc1    6.08
5) CC(C)c1nn(-c2cc(F)cc(F)c2)c2nc(C(=O)O)cc(-c3ccc(N4CCC(C#N)CC4)cc3)c12    6.31
6) CC(C)c1nn(-c2cccc(N3CCOCC3)n2)c2nc(C(=O)O)cc(-c3ccc(N4CCOCC4)cc3)c12    6.33
7) COC(=O)N1CCN(c2ccc(-c3cc(C(=O)O)nc4c3c(C)nn4-c3ccccc3)cc2)CC1    6.04
8) C=C(C)c1nn(-c2ccccc2)c2nc(C(=O)O)cc(-c3ccc(N4CCOCC4)cc3)c12    6.00
9) COC1CCN(c2cc(C(=O)O)nc3c2c(C(C)C)nn3-c2ccc(F)cc2)CC1    6.25
10) CC(C)c1nn(C2CCCN(CC(F)(F)F)C2)c2nc(C(=O)O)cc(-c3ccc(N4CCOCC4)cc3)c12 (stereo not shown)    6.04
11) Cc1nn(-c2ccccc2)c2nc(C(=O)O)cc(N3CCC(C(=O)N4CCCC4)CC3)c12    5.51
12) Cc1nn(-c2ccccc2)c2nc(C(=O)O)cc(-c3ccc(NC4CCOCC4)cc3)c12    5.84
13) CC(C)c1nn(-c2cncc(N3CCOCC3)c2)c2nc(C(=O)O)cc(-c3ccc(N4CCOCC4)cc3)c12    5.66
14) CC(C)c1nn(-c2cccc(N(C)C)c2)c2nc(C(=O)O)cc(-c3ccc(N4CCOCC4)nc3)c12    6.04
15) CC(C)c1nn(-c2cccc(F)c2)c2nc(C(=O)O)cc(-c3ccc(N(C)C4CCOCC4)cc3)c12    6.30
16) CC(C)c1nn(C2CCCC2)c2nc(C(=O)O)cc(-c3ccc(N4CCOCC4)nc3)c12    5.93
17) Cc1cccc(-n2nc(C(C)C)c3c(N4CCC5(CC4)COC5)cc(C(=O)O)nc32)c1    6.10
18) CC(C)c1nn(-c2ccc(F)c(F)c2)c2nc(C(=O)O)cc(-c3ccc(N(C)C4CCOCC4)cc3)c12    6.00
19) Cc1nn(-c2ccccc2)c2nc(C(=O)O)cc(-c3ccc(N4CCN(CC#N)CC4)cc3)c12    5.94
